Reference for the values: PubChem BioAssay (NCI)

Catalogue of growth readings, one per entry.
Test system: NCI-H23 lung
Experiment: NCI-60 one-dose screen, 48 h (100 = growth as untreated, 0 = no growth, -100 = all killed)
Conditions: 10 µM unless noted
The panel holds about 83,000 compounds, 20% with a hit somewhere; the sample as a whole holds those more often.
endpoint: growth (%)

>  <molecule_smiles>
COc1ccc(/C=N/N=C(/c2ccccc2)c2ccc3nc(-c4ccc(Cl)cc4)[nH]c3c2)cc1

>  <endpoint>
growth

>  <observed_measurement>
91.1

$$$$
>  <molecule_smiles>
O=C(CSc1nc2ccccc2c(=O)n1-c1ccccc1)N/N=C/c1ccc(Oc2ccc(Cl)cc2)cc1

>  <endpoint>
growth

>  <observed_measurement>
39.1

$$$$
>  <molecule_smiles>
CCc1cc(OC(=O)N2CCN(CCC(C)(COC(C)(C)C)COC(C)(C)C)CC2)ccc1Nc1cc(-c2ccc(-n3cccn3)cc2)[nH]n1

>  <endpoint>
growth

>  <observed_measurement>
83.9

$$$$
>  <molecule_smiles>
CCCNNC(=O)c1ccc(-c2ccc(NC(=O)CCCCCCC(=O)N[C@H](C(=O)N3C[C@H](O)C[C@H]3C(=O)N[C@@H](C)c3ccc(-c4scnc4C)cc3)C(C)(C)C)cc2)cc1

>  <endpoint>
growth

>  <observed_measurement>
37.3

$$$$
>  <molecule_smiles>
CC(C)(C)Nc1nc2c(OCCc3ccccc3)cccn2c1-c1ccc([N+](=O)[O-])cc1

>  <endpoint>
growth

>  <observed_measurement>
62.4

$$$$
>  <molecule_smiles>
CCOC(=O)Nc1ccc2c(ccn2C(=O)c2cccc(F)c2)c1

>  <endpoint>
growth

>  <observed_measurement>
41.4

$$$$
>  <molecule_smiles>
NC1CC2(CCN(c3cnc(C(=O)Nc4cc(F)cc5cccnc45)cn3)CC2)C1

>  <endpoint>
growth

>  <observed_measurement>
88.6

$$$$
>  <molecule_smiles>
COc1ccc(-c2cc(-c3ccc(N(C)C)cc3)n3c(n2)nc2ccccc23)cc1

>  <endpoint>
growth

>  <observed_measurement>
68

$$$$
